Assay: Inhibition of porcine brain tubulin polymerization assessed as reduction in tubulin assembly at 37 degreeC measured after 40 mins in presence of GTP by turbidimetric analysis
Design: species or system Sus scrofa
Consider the cut-off 1000 nM. If the recorded IC50 is strictly smaller, the label is Y; if not, the label is N.

>  <Structure Smiles>
Nc1ccc(N2CCN(C(=O)n3c4ccccc4c(=O)c4ccccc43)CC2)cc1

>  <Class Name>
N

$$$$
>  <Structure Smiles>
Nc1cccc(N2CCN(C(=O)n3c4ccccc4c(=O)c4ccccc43)CC2)c1

>  <Class Name>
N

$$$$
>  <Structure Smiles>
COc1ccc(C(=O)n2c3ccccc3c(=O)c3ccccc32)cc1O

>  <Class Name>
Y

$$$$
>  <Structure Smiles>
O=C(N1CCN(c2cccnc2)CC1)n1c2ccccc2c(=O)c2ccccc21

>  <Class Name>
N

$$$$
>  <Structure Smiles>
COc1cccc(C(=O)n2c3ccccc3c(=O)c3ccccc32)c1

>  <Class Name>
N

$$$$
>  <Structure Smiles>
COc1ccccc1N1CCN(C(=O)n2c3ccccc3c(=O)c3cc(N)ccc32)CC1

>  <Class Name>
N

$$$$
>  <Structure Smiles>
COc1cccc(N2CCN(C(=O)n3c4ccccc4c(=O)c4ccccc43)CC2)c1

>  <Class Name>
Y

$$$$
>  <Structure Smiles>
COc1cc(N2CCN(C(=O)n3c4ccccc4c(=O)c4ccccc43)CC2)cc(OC)c1OC

>  <Class Name>
N

$$$$
>  <Structure Smiles>
COc1ccc2c(c1)c(=O)c1cc(C#N)ccc1n2C(=O)N1CCN(c2ccccc2OC)CC1

>  <Class Name>
N

$$$$
>  <Structure Smiles>
COc1cc(OC)cc(N2CCN(C(=O)n3c4ccccc4c(=O)c4ccccc43)CC2)c1

>  <Class Name>
Y

$$$$

---

Assay: Inhibition of porcine brain tubulin polymerization assessed as reduction in tubulin assembly at 37 degreeC measured after 40 mins in presence of GTP by turbidimetric analysis
Set-up: species or system Sus scrofa
Quantity: IC50 (nM)

>  <Structure Smiles>
COc1ccccc1N1CCN(C(=O)n2c3ccccc3c(=O)c3cc(C#N)ccc32)CC1

>  <Quantity>
IC50

>  <Relation>
=

>  <Measurement>
3400

$$$$
>  <Structure Smiles>
COc1cccc(N2CCN(C(=O)n3c4ccc(C#N)cc4c(=O)c4cc(OC)ccc43)CC2)c1

>  <Quantity>
IC50

>  <Relation>
>

>  <Measurement>
10000

$$$$
>  <Structure Smiles>
COc1ccc(C(=O)n2c3ccccc3c(=O)c3ccccc32)cc1

>  <Quantity>
IC50

>  <Relation>
=

>  <Measurement>
1600

$$$$
>  <Structure Smiles>
COc1cccc(N2CCN(C(=O)n3c4ccccc4c(=O)c4cccnc43)CC2)c1

>  <Quantity>
IC50

>  <Relation>
=

>  <Measurement>
450

$$$$
>  <Structure Smiles>
N#Cc1cccc(N2CCN(C(=O)n3c4ccccc4c(=O)c4ccccc43)CC2)c1

>  <Quantity>
IC50

>  <Relation>
=

>  <Measurement>
520

$$$$

---

Quick reference for IC50 among some compounds
Test: Inhibition of porcine brain tubulin polymerization assessed as reduction in tubulin assembly at 37 degreeC measured after 40 mins in presence of GTP by turbidimetric analysis
Set-up: species or system Sus scrofa

>  <Structure Smiles>
COc1ccccc1N1CCN(C(=O)n2c3ccccc3c(=O)c3cnccc32)CC1

>  <Relation>
=

>  <IC50 [nM]>
3900

$$$$
>  <Structure Smiles>
COc1ccccc1N1CCN(C(=O)n2c3ccccc3c(=O)c3cc([N+](=O)[O-])ccc32)CC1

>  <Relation>
>

>  <IC50 [nM]>
10000

$$$$
>  <Structure Smiles>
COC(=O)Nc1nc2cc(C(=O)c3cccs3)ccc2[nH]1

>  <Relation>
=

>  <IC50 [nM]>
760

$$$$
>  <Structure Smiles>
COc1ccc(C(=O)n2c3ccccc3c(=O)c3cc(C#N)ccc32)cc1

>  <Relation>
=

>  <IC50 [nM]>
1700

$$$$

---

Assay: Inhibition of porcine brain tubulin polymerization assessed as reduction in tubulin assembly at 37 degreeC measured after 40 mins in presence of GTP by turbidimetric analysis
Set-up: species or system Sus scrofa
Quantity: log10 IC50 (log10 of the value in µM)

>  <Structure Smiles>
COc1ccc(N2CCN(C(=O)n3c4ccccc4c(=O)c4ccccc43)CC2)c(OC)c1

>  <Measurement>
0.67

$$$$
>  <Structure Smiles>
O=C(N1CCN(c2cccc(F)c2)CC1)n1c2ccccc2c(=O)c2ccccc21

>  <Measurement>
-0.15

$$$$
>  <Structure Smiles>
O=C(N1CCN(c2cccc([N+](=O)[O-])c2)CC1)n1c2ccccc2c(=O)c2ccccc21

>  <Measurement>
-0.25

$$$$
>  <Structure Smiles>
O=C(N1CCN(c2ccccc2Cl)CC1)n1c2ccccc2c(=O)c2ccccc21

>  <Measurement>
0.85

$$$$
>  <Structure Smiles>
COc1cccc(N2CCN(C(=O)n3c4ccccc4c(=O)c4cc(OC)ccc43)CC2)c1

>  <Measurement>
-0.09

$$$$
>  <Structure Smiles>
COc1cccc(N2CCN(C(=O)n3c4ccccc4c(=O)c4cnccc43)CC2)c1

>  <Measurement>
-0.14

$$$$
>  <Structure Smiles>
COc1cccc(N2CCN(C(=O)n3c4ccccc4c(=O)c4cc(N)ccc43)CC2)c1

>  <Measurement>
0.10

$$$$
>  <Structure Smiles>
COc1ccccc1N1CCN(C(=O)n2c3ccccc3c(=O)c3cccnc32)CC1

>  <Measurement>
0.13

$$$$
>  <Structure Smiles>
COc1ccccc1N1CCN(C(=O)n2c3ccccc3c(=O)c3ccccc32)CC1

>  <Measurement>
-0.28

$$$$
>  <Structure Smiles>
COc1ccc(C(=O)n2c3ccccc3c(=O)c3cc(OC)ccc32)cc1

>  <Measurement>
0.15

$$$$
>  <Structure Smiles>
COc1ccc(OC)c(N2CCN(C(=O)n3c4ccccc4c(=O)c4ccccc43)CC2)c1

>  <Measurement>
-0.36

$$$$
>  <Structure Smiles>
O=C(N1CCN(c2cccc(Cl)c2)CC1)n1c2ccccc2c(=O)c2ccccc21

>  <Measurement>
-0.22

$$$$
>  <Structure Smiles>
COc1ccccc1C(=O)n1c2ccccc2c(=O)c2ccccc21

>  <Measurement>
0.74

$$$$
>  <Structure Smiles>
COc1ccc2c(c1)c(=O)c1ccccc1n2C(=O)N1CCN(c2ccccc2OC)CC1

>  <Measurement>
0.54

$$$$
